Value source: the supplement of paper PMC9170038

Would you kindly list apparent KD of MS2 coat protein for each of these sequences?
Tested on: MS2 coat protein
Assay: apparent KD of MS2 coat protein; designed switch direction (-1 OFF switch, 1 ON switch): -1; higher = weaker reporter binding
Settings: input ligand: none
Numbers only, in nM.

sequenceData: UUAAAACAUGUAGGAUAUGCGUAGAAAAGCUAUGCAGAAGGACAUGAGGAUCACCCAUGUUCAACCAUCAACGUACAGAUGGAA (Eterna round: R96, puzzle: Exclusion NG 1)
targetOfAssay: MS2 coat protein
measurementUnit: nM
apparent KD of MS2 coat protein: 14.1
--
sequenceData: UGAGCUUGAGGAUAUACAAGGCGACCGUGAGGUCGAGGGUUACAUGAGGAUCACCCAUGUAGAAGGCAAGUUCU [Mat - Exclusion 2 - JL Mod - D10] (Eterna round: R97, puzzle: Exclusion 2)
targetOfAssay: MS2 coat protein
measurementUnit: nM
apparent KD of MS2 coat protein: 54.3
--
sequenceData: ACAAGCUUUUAGAUUCUUAACAUGAGGAUCACCCAUGUGCUCGUCUUAUUGGCCGGCCGGCCGCCGGAAAAGCUUGU (Eterna round: R97, puzzle: Sensor, turn-off variant 1)
targetOfAssay: MS2 coat protein
measurementUnit: nM
apparent KD of MS2 coat protein: 25.3
--
sequenceData: GUAGAGUGAGGAUAUACGAGAUCGAAAGAUCGGCGAUCCAUACAUGAGGAUCACCCAUGUAGAAGGCACUCUAC [Eli x2 4.002] (Eterna round: R97, puzzle: Exclusion 2)
targetOfAssay: MS2 coat protein
measurementUnit: nM
apparent KD of MS2 coat protein: 26.3
--
sequenceData: CCGGAUUAGGAGGAUAUAGGAGUCGAUAGACACCUAGAAGGCCUGACAUGAGGAUCACCCAUGUGUCCUACCGG [Mod of Eli 17 - Jieux - Exclusion 6] (Eterna round: R97, puzzle: Exclusion 6)
targetOfAssay: MS2 coat protein
measurementUnit: nM
apparent KD of MS2 coat protein: 22.9

Each sequence below has a recorded value; state its apparent KD of MS2 coat protein.
1. AUGAACAAGCUUUUUGCAAACAUGAGGAUCACCCAUGUCUUAUAUCGUACCAUGCUAGGCCCUAGCAUGGUACGAUU [jl sellena mod 2] (Eterna round: R97, puzzle: Sensor, turn-off variant 1)
2. CGGUGUAGAGGAUAUACGUGAAGAUAAGAAAAUAAUAAUUAACAUGAGGAUCACCCAUGUAGAAGGCUAUAGCG [JR_Ex2_Sub082] (Eterna round: R97, puzzle: Exclusion 2)
3. AUUCCACAUGAGGAUCACCCAUGUGAGGAUAUCAUGCUUCGUAGUAAACUACGAAGUGUGAGAAGGCACAAUGG [Omei Ex1 C3] (Eterna round: R97, puzzle: Exclusion 1)
4. AAAAGGCGAGGAUAUCCGGGCACGGACAUGAGGAUCACCCAUGUGACCUCGCCCGGCGGAGGAGAAGGCGCCGAAG [Biestein] (Eterna round: R97, puzzle: Exclusion 5)

Return:
1: 14.6; 2: 24.9; 3: 62; 4: 158

----------
Test system: MS2 coat protein
Assay: apparent KD of MS2 coat protein; designed switch direction (-1 OFF switch, 1 ON switch): -1; higher = weaker reporter binding
Settings: Eterna round: R95; input ligand: FMN 200 uM
parameterMeasured: apparent KD of MS2 coat protein (nM)
Numbers only, in nM.

Worked examples, 2 sequences total:
sequenceData: AAUUUACAUGAGGAUCACCCAUGUCAGGAUAUGGUUUUAUUUUUUUUUUUUUUUUAUUCCAGAAGGGACAGUUA (puzzle: Exclusion 1)
parameterMeasured: apparent KD of MS2 coat protein
measurementUnit: nM
quantitativeReadout: 24.2
--
sequenceData: GCCAGAGCAGGAUAUUGAAUAAUUCACAUGAGGAUCACCCAUGUCCAGCGAAAGCUGGAACGAGAAGGGCUCUGGC [Fiskers Ex 5 - 5] (puzzle: Exclusion 5)
parameterMeasured: apparent KD of MS2 coat protein
measurementUnit: nM
quantitativeReadout: 12.5

Enquiry: If you can, please state the reported apparent KD of MS2 coat protein value of UAAAGAGCAGGAUAUCUAAUGUAUCACAUGAGGAUCACCCAUGUCCAGCGAAAGCUGGAGGGAGAAGGGCUCUAAU [Mat - Exclusion 5 - Eli mod - D103] (puzzle: Exclusion 5) .
Return: 178

----------
Provide the recorded apparent KD of MS2 coat protein for the entries that follow.
Tested on: MS2 coat protein
Test: apparent KD of MS2 coat protein; designed switch direction (-1 OFF switch, 1 ON switch): -1; higher = weaker reporter binding
Conditions: input ligand: FMN 200 uM
One number for each entry, in nM.

sequenceData: AAGUCGAGCGUGAGGAUAUCGUCCGGACGACCCAACGAGAAGGCACAUGAGGAUCACCCAUGUGAUUCAGCUCA [Brourd's EX4 #50] (Eterna round: R97, puzzle: Brourd's mod of Exclusion 4)
targetOfAssay: MS2 coat protein
quantitativeReadout: 20.3
--
sequenceData: AUUGAUAGCACAGGAUAUUGAGAUUUGAAUUGACAAGAAGGGUGUACAUGAGGAUCACCCAUGUAAUGGGAGAAUGAUUGAUUA [JR_ExcNG1_Sub001] (Eterna round: R96, puzzle: Exclusion NG 1)
targetOfAssay: MS2 coat protein
quantitativeReadout: 1260
--
sequenceData: AUUAUAUAGACAGGAUAUUGAUUAUUAUUUUAACAUGAGGAUCACCCAUGUAACCUUAUGUGUAACAAGAAGGGUCAUUUAUUA [Title] (Eterna round: R96, puzzle: Exclusion NG 2)
targetOfAssay: MS2 coat protein
quantitativeReadout: 188
--
sequenceData: CGAAUUAUAGGAUAUACAUGAGGAUCACCCAUGUAACCGUGACUGGGAUGCGUCUCAAGUAGAAGGAUAGGCGC [Eternabot (L1) Solution 9] (Eterna round: R97, puzzle: Exclusion 3)
targetOfAssay: MS2 coat protein
quantitativeReadout: 27.2
--
sequenceData: GCCGUAAAUGUGAGGAUAUACCUAUGGAUACAUAGGUAGAAGGCACAUGAGGAUCACCCAUGUCCUUAAUCGGC [Eli BMX r4m3] (Eterna round: R97, puzzle: Brourd's mod of Exclusion 4)
targetOfAssay: MS2 coat protein
quantitativeReadout: 730
--
sequenceData: AUCGAGAUAGGAUAUGCCCAAGUAAACAUGAGGAUCACCCAUGUGGGUCACCUCUUCACGGUAGAAGGGUUAGAUU [Eternabot (L1) Solution 90] (Eterna round: R97, puzzle: Exclusion 5)
targetOfAssay: MS2 coat protein
quantitativeReadout: 62

Batch lookup, apparent KD of MS2 coat protein per entry.
1. CUGGUUGUCGAGGAUAUGCACCGGCUCGCUGACGCAGAAGGCGACACAUGAGGAUCACCCAUGUCGGUUCGCGU [salish99_ex6_r004_438] (Eterna round: R97, puzzle: Exclusion 6)
2. AGGUGUCUCUGGAAACAUGAGGAUCACCCAUGUUGAGUUAGCGAGGAUAUCGGUAACCAUUGUUAUGAGAAGGCGCAAACCAGA [Ex NG3 #39] (Eterna round: R96, puzzle: Exclusion NG 3)
3. UGAGACUGAGGAUAUACUAGCCCAUAAAGUGGGUAGUGGGUACAUGAGGAUCACCCAUGUAGAAGGCAGCCUCG [Omei Repeat Sequence v2] (Eterna round: R97, puzzle: Exclusion 2)

Return:
1. 29
2. 14.8
3. 251

----------
Tested on: MS2 coat protein
Assay: apparent KD of MS2 coat protein; designed switch direction (-1 OFF switch, 1 ON switch): 1; higher = weaker reporter binding
Conditions: Eterna round: R95; input ligand: FMN 200 uM
Please enter T where apparent KD of MS2 coat protein is greater than or equal to 30 nM, and F where it is lower.

Consider the worked cases shown below.
sequenceData: UCAAGCGAAAGGCUCGUCUUAUGCAAGAAACAUGAGGAUCACCCAUGUGAGGGACGAUUGAGUUAGAUGGAAUGGAA [JR_SHM208A_Sub031] (puzzle: Sensor for hsa-mir-208a)
classLabel: F
--
sequenceData: AUUAAACAUGAGGAUCACCCAUGUCAACAAAGUCGAGGAUAUGGGCUAAUAAAAUAAGAACCAGAAGGCGAAUAAU [salish99_ss1_r3_062] (puzzle: Same State 1)
classLabel: F
--
sequenceData: GAAGGAUGAGCGUAGGAUAUAGGAGGAGUGACAUGAGGAUCACCCAUGUGGUAUGAGGGAGGAUUCUAGAAGGACGCGGUAGAAG [JR_SS2_Sub065] (puzzle: Same State 2)
classLabel: T
--
sequenceData: CAGCACUAUCGAGAGGAUAUGCGGUGAUGGACAUGAGGAUCACCCAUGUUAGCGAUAGCAUCACGGCAGAAGGCUCUGCUGCUGC [Soteed Omei mod 37] (puzzle: Same State 2)
classLabel: F

Enquiry: Hi team, for AUCCUACAUGAGGAUCACCCAUGUGACGCCUCAAUAGGAUAUGCGUGUGCCUUGGCGCAUGCAGAAGGAUUGGAGC [JL Aveso mod 4] (puzzle: Same State 1) , is the recorded apparent KD of MS2 coat protein at or above 30 nM?
Return: T
